Origin of the recorded values: patent US20250154115A1

- TEST TARGET: IPMK (Homo sapiens (Human), UniProt Q8NFU5)
- Sequence (Q8NFU5 whole entry, species assumed): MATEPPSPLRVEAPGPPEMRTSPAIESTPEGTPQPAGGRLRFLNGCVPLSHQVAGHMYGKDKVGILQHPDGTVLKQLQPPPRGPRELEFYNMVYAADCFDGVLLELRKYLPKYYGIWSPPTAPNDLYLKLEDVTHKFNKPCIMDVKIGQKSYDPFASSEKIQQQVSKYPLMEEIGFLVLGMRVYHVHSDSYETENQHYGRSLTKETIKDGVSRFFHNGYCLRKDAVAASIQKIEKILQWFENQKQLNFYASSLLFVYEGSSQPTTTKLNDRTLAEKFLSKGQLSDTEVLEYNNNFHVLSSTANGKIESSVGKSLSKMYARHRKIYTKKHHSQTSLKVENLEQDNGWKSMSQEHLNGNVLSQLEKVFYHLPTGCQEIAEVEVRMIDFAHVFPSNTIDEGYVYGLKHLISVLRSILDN
- PROTOCOL NOTES: Enzyme-coupled assay, IPMK IC50
- Type: biochemical
- CONDITION LABEL: determined from enzyme-coupled assays
pIC50: −log10 of the molar value.
MEASUREMENT NAME: pIC50

- SMILES REPR: "CC1(C(=O)N2CCC(Oc3cccc(-c4onc5ccc(-c6noc(=O)[nH]6)cc45)c3)CC2)COC1"
  pIC50: "6.00 to 7.00"

For every listed record, write down its pIC50.
1. O=c1[nH]c(-c2ccc3noc(-c4cccc(OC5CCNCC5)c4)c3c2)no1
2. CC(C)(C)OC(=O)N1CCC(Oc2cccc(-c3onc4ccc(-c5noc(=O)[nH]5)cc34)c2)CC1
3. O=c1[nH]c(-c2ccc3noc(-c4cccc(OC5CCN(CC6CC6)CC5)c4)c3c2)no1

[A]
["> 8.00", "7.00 to 8.00", "7.00 to 8.00"]

For every listed record, write down its pIC50.
1. O=c1[nH]c(-c2ccc3noc(-c4cccc(Oc5ncc(Cl)cc5Cl)c4)c3c2)no1
2. O=C(C1CC1)N1CCC(Oc2cccc(-c3onc4ccc(-c5noc(=O)[nH]5)cc34)c2)CC1
3. O=c1[nH]c(-c2ccc3noc(-c4cccc(OC5CCN(CCO)CC5)c4)c3c2)no1
4. O=C(Nc1ccc(-c2onc3ccc(-c4noc(=O)[nH]4)cc23)cc1)C1CC1

[A]
1: 7.00 to 8.00; 2: 7.00 to 8.00; 3: 7.00 to 8.00; 4: 7.00 to 8.00

For every listed record, write down its pIC50.
1. O=C(Nc1ccc(-c2onc3ccc(-c4noc(=O)[nH]4)cc23)cc1)C1CNC1
2. O=c1[nH]c(-c2ccc3noc(-c4ccccc4)c3c2)no1
3. CN1CCC(Oc2cccc(-c3onc4ccc(-c5noc(=O)[nH]5)cc34)c2)CC1
4. O=C(Nc1ccc(-c2onc3ccc(-c4noc(=O)[nH]4)cc23)cc1)C1CCCC1
5. O=c1[nH]c(-c2ccc3noc(-c4cccc(OC5CCN(C6COC6)CC5)c4)c3c2)no1
6. O=c1[nH]c(-c2ccc3noc(-c4cccc(OC5CCN(C6CCC6)CC5)c4)c3c2)no1

[A]
1: 6.00 to 7.00; 2: 7.00 to 8.00; 3: 6.00 to 7.00; 4: 7.00 to 8.00; 5: 6.00 to 7.00; 6: 7.00 to 8.00

For every listed record, write down its pIC50.
1. O=C(Nc1ccc(-c2onc3ccc(-c4noc(=O)[nH]4)cc23)cc1)[C@@H]1CCCN1
2. O=c1[nH]c(-c2ccc3noc(-c4ccc(-c5ccccc5)cc4)c3c2)no1

[A]
1: 7.00 to 8.00; 2: > 8.00

----------
- TEST TARGET: IPMK (Homo sapiens (Human))
- PROTOCOL NOTES: Enzyme-coupled assay, IPMK IC50
- Assay type: biochemical
- CONDITION LABEL: enzyme-coupled assay; Table 2
pIC50: −log10 of the molar value.
MEASUREMENT NAME: pIC50

Below, each entry is followed by its recorded pIC50 result.
- SMILES REPR: "Cc1cc(C)cc(-c2onc3ccc(C(=O)O)cc23)c1"
  pIC50: "6.00 to 7.00"
- SMILES REPR: "COc1ccc(COc2cncc(-c3cccc(-c4onc5ccc(C(=O)O)cc45)c3)c2)cc1"
  pIC50: "6.00 to 7.00"

For every listed record, write down its pIC50.
1. O=C(O)c1ccc2noc(-c3ccc(Oc4ccccc4)cc3)c2c1
2. O=C(O)c1ccc2noc(-c3cccc(Oc4ccccc4)c3)c2c1
3. O=C(O)c1ccc2noc(-c3cccc(-c4ccccc4)c3)c2c1

[A]
1. 6.00 to 7.00
2. 7.00 to 8.00
3. 7.00 to 8.00

----------
For each record, write down the corresponding IC50.
- TEST TARGET: IPMK (Homo sapiens (Human), UniProt Q8NFU5)
- PROTOCOL NOTES: Enzyme-coupled assay, IPMK IC50
- Type: biochemical
- CONDITION LABEL: enzyme-coupled assay; Table 4

Below, each entry is followed by its recorded IC50 result.
- SMILES REPR: "O=C(C1CC1)N1CCC(Oc2cccc(-c3onc4ccc(-c5nnn[nH]5)cc34)c2)CC1"
  TEST TARGET: "IPMK (Homo sapiens (Human), UniProt Q8NFU5)"
  VALUE MEASURED: "< 10 nM"
- SMILES REPR: "CC(C)C(=O)N1CCC(Oc2cccc(-c3onc4ccc(-c5nnn[nH]5)cc34)c2)CC1"
  TEST TARGET: "IPMK (Homo sapiens (Human), UniProt Q8NFU5)"
  VALUE MEASURED: "< 10 nM"

For every listed record, write down its IC50.
1. CN1CCC(Oc2cccc(-c3onc4ccc(-c5nnn[nH]5)cc34)c2)CC1
2. Fc1ccc(-c2onc3ccc(-c4nnn[nH]4)cc23)cc1
3. c1ccc(-c2onc3ccc(-c4nc[nH]n4)cc23)cc1
4. Cc1cc(C)cc(-c2onc3ccc(-c4nnn[nH]4)cc23)c1
5. CN(C)CCOc1ccc(-c2onc3ccc(-c4nnn[nH]4)cc23)cc1
6. c1ccc(-c2onc3ccc(-n4cncn4)cc23)cc1
7. Clc1ccccc1-c1onc2ccc(-c3nnn[nH]3)cc12

[A]
1: 10 to 100 nM; 2: 10 to 100 nM; 3: 10 to 100 nM; 4: 10 to 100 nM; 5: 1000 to 100000 nM; 6: 10 to 100 nM; 7: < 10 nM

----------
- TEST TARGET: UniProt Q92551
- Sequence (Q92551 whole entry): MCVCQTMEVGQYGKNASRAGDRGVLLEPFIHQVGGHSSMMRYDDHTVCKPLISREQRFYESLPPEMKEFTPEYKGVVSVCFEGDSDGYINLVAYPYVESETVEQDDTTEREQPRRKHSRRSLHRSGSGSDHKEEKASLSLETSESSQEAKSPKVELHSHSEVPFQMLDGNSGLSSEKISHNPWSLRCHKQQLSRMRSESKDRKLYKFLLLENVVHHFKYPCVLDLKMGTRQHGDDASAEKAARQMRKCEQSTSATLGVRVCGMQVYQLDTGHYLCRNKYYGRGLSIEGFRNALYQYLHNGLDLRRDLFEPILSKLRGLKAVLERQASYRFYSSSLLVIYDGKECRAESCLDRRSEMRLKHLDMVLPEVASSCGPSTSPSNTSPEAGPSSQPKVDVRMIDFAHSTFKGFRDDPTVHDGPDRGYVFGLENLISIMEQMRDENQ
- PROTOCOL NOTES: Enzyme-coupled assay of IP6K1 activity (Dipp1-coupled, malachite green Pi release)
- Format: biochemical
- CONDITION LABEL: enzyme-coupled assay; Table 2
pIC50: −log10 of the molar value.
For each record, write down the corresponding pIC50.

Below, each entry is followed by its recorded pIC50 result.
- SMILES REPR: "O=C(O)c1ccc2noc(-c3ccc(NC(=O)C4CC4)cc3)c2c1"
  pIC50: "4.00 to 6.00"
- SMILES REPR: "O=C(O)c1ccc2noc(-c3ccc(C(=O)NCCC4CC4)cc3)c2c1"
  pIC50: "6.00 to 7.00"
- SMILES REPR: "O=C(O)c1ccc2noc(-c3ccc(Oc4ncc(Cl)cc4Cl)cc3)c2c1"
  pIC50: "6.00 to 7.00"
- SMILES REPR: "O=C(O)c1ccc2noc(-c3cccc(-c4cncc(O)c4)c3)c2c1"
  pIC50: "6.00 to 7.00"
- SMILES REPR: "CN1CCC(NC(=O)c2ccc(-c3onc4ccc(C(=O)O)cc34)cc2)CC1"
  pIC50: "4.00 to 6.00"

[Q] For the compound O=C(CC1CCOCC1)Nc1ccc(-c2onc3ccc(C(=O)O)cc23)cc1 , give its reported pIC50.
[A] 4.00 to 6.00

----------
- TEST TARGET: UniProtKB Q8NFU5
- PROTOCOL NOTES: Enzyme-coupled assay, IPMK IC50
- Assay type: biochemical
- CONDITION LABEL: enzyme-coupled assay; Table 4
For each record, write down the corresponding IC50.

- COMPOUND: "c1cc(OCCN2CCOCC2)cc(-c2onc3ccc(-c4nnn[nH]4)cc23)c1 [Compound 83]"
  MEASUREMENT NAME: "IC50"
  VALUE MEASURED: "10 to 100 nM"
- COMPOUND: "O=C(Nc1ccc(-c2onc3ccc(-c4nnn[nH]4)cc23)cc1)C1CC1 [Compound 71]"
  MEASUREMENT NAME: "IC50"
  VALUE MEASURED: "< 10 nM"
- COMPOUND: "FC(F)(F)Oc1ccc(-c2onc3ccc(-c4nnn[nH]4)cc23)cc1 [Compound 66]"
  MEASUREMENT NAME: "IC50"
  VALUE MEASURED: "10 to 100 nM"
- COMPOUND: "COc1ccccc1-c1onc2ccc(-c3nnn[nH]3)cc12 [Compound 77]"
  MEASUREMENT NAME: "IC50"
  VALUE MEASURED: "10 to 100 nM"

Moving on to another compound below.
[Q] For the compound CC(=O)N1CCC(Oc2cccc(-c3onc4ccc(-c5nnn[nH]5)cc34)c2)CC1 [Compound 85] , give its reported IC50.
[A] 10 to 100 nM

----------
For each record, write down the corresponding pIC50.
- TEST TARGET: IP6K3 (Homo sapiens (Human), UniProt Q96PC2)
- Sequence (Q96PC2 whole entry): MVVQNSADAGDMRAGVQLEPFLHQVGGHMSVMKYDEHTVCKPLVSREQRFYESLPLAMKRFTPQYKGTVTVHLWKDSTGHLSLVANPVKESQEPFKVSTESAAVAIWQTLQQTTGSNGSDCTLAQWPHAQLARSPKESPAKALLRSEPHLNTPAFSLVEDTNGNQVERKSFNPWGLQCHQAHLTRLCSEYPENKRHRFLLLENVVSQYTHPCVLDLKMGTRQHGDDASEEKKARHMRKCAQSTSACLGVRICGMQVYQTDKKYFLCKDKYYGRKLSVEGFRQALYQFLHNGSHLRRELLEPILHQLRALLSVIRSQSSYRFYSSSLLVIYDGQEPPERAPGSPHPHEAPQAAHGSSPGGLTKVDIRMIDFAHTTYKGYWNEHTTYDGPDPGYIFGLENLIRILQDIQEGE
- PROTOCOL NOTES: Enzyme-coupled assay of IP6K3 activity (Dipp1-coupled, malachite green Pi release)
- Assay type: biochemical
- CONDITION LABEL: enzyme-coupled assay; Table 2
pIC50: −log10 of the molar value.

Below, each entry is followed by its recorded pIC50 result.
- SMILES REPR: "O=C(O)c1ccc2noc(-c3cccc(NC(=O)C4CC4)c3)c2c1"
  pIC50: "4.00 to 6.00"
- SMILES REPR: "CC(C)NC(=O)c1ccc2noc(-c3ccccc3)c2c1"
  pIC50: "4.00 to 6.00"
- SMILES REPR: "CC(C)NC(=O)c1ccc(-c2onc3ccc(C(=O)O)cc23)cc1"
  pIC50: "6.00 to 7.00"
- SMILES REPR: "Cc1cc(C)cc(-c2onc3ccc(C(=O)O)cc23)c1"
  pIC50: "4.00 to 6.00"

[Q] // output pIC50; input O=C(O)c1ccc2noc(-c3ccc(Oc4ncc(Cl)cc4Cl)cc3)c2c1 ; system IP6K3 (Homo sapiens (Human), UniProt Q96PC2)
[A] 4.00 to 6.00
